Test system: human hepatocellular carcinoma cells HepG2
Assay: MTT anti-proliferative assay, HepG2
Assay type: cell-based
Details: Homo sapiens, HepG2, 48 h, MTT, 48 h, mean ± SD; read-out: IC50 HepG2
Outcome Measure: IC50 (µM)

1) CC(C)[C@@H](C)/C=C/[C@@H](C)[C@H]1CC[C@@]2(O)C3=C(CC[C@]12C)[C@@]1(C)CC[C@H](O)C[C@@]12O[C@H]2C3=O = 201
2) CC(C)[C@@H](C)/C=C/[C@@H](C)[C@H]1CC[C@H]2C3=CC=C4C[C@@H](O)CC[C@]4(C)[C@H]3CC[C@]12C [Compound 12, (3β, 22E)-ergosta-5,7, 22-trien-3-ol] = 75.6
3) CC(C)[C@@H](C)/C=C/[C@@H](C)[C@H]1CC[C@H]2C3=C[C@H](O)[C@@]4(O)C[C@@H](O)CC[C@]4(C)[C@H]3CC[C@]12C = 197
4) CC(C)[C@@H](C)/C=C/[C@@H](C)[C@H]1CCC2=C3[C@H](O)[C@@H]4O[C@@]45C[C@@H](O)CC[C@]5(C)[C@H]3CC[C@@]21C = 50.6
5) CC(C)[C@@H](C)/C=C/[C@@H](C)[C@H]1CC[C@H]2C3=C[C@H](O)[C@@]4(O)C[C@@H](O)CC[C@]4(C)[C@@]3(O)CC[C@]12C = 185

----------
Tested on: human hepatocellular carcinoma cells HepG2
Experiment: MTT anti-proliferative assay, HepG2
Assay type: cell-based
Settings: Homo sapiens, HepG2, 48 h, MTT, 48 h, mean ± SD; read-out: IC50 HepG2
Recorded measurements of IC50, one per entry
Outcome Measure: IC50 (µM)

1. CO[C@@H]1C=C2[C@@H]3CC[C@H]([C@H](C)/C=C/[C@H](C)C(C)C)[C@@]3(C)CC[C@@H]2[C@@]2(C)CC[C@H](O)[C@H]3O[C@@]312 = 138
2. O=c1c(O)c(-c2ccc(O)cc2)oc2cc(O)cc(O)c12 [kaempferol, reference compound] = 45.4
3. CC(C)[C@@H](C)/C=C/[C@@H](C)[C@H]1CC[C@H]2C3=C(CC[C@]12C)[C@@]1(C)CC[C@H](O)C[C@@]12O[C@H]2[C@H]3O = 22.1
4. CC(C)[C@@H](C)/C=C/[C@@H](C)[C@H]1CC[C@H]2C3=C[C@@H](O)[C@@]4(O)C[C@@H](O)CC[C@]4(C)[C@H]3CC[C@]12C = 175
5. CC(C)[C@@H](C)/C=C/[C@@H](C)[C@H]1CC[C@@H]2[C@]1(C)CC=C1[C@]23C=C[C@]2(C[C@@H](O)CC[C@]12C)OO3 = 44.5
6. CC(C)[C@@H](C)/C=C/[C@@H](C)[C@H]1CC[C@@H]2[C@]1(C)CC[C@H]1[C@]23C=C[C@]2(C[C@@H](O)CC[C@]12C)OO3 = 34.8

Reference for the values: paper PMC5670154
